Molecular target: T1, OC43 S1B+C (S1B and S1C domains of the hCoV-OC43 spike glycoprotein) (human coronavirus OC43, UniProt P36334 321-675)
T1 construct: also called recombinant OC43 S1B+C; recombinant OC43 protein; source: Expi293F, transfected, purified from supernatant (Ni-NTA IMAC, SEC); not shown: His6, C-terminal, cleaved
T1 sequence (looked up): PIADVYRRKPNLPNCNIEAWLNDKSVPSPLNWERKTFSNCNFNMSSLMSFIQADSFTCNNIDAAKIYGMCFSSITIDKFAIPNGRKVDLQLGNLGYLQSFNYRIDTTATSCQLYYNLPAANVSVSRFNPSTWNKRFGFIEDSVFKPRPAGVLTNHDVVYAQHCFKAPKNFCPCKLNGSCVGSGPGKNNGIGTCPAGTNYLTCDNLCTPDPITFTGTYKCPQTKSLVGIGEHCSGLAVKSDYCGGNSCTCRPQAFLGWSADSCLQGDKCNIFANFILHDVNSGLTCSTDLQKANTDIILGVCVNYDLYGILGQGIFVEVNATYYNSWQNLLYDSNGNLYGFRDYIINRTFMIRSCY
Assay: BLI
Details: both partners purified
Reported koff values for a set of binders
experimentalEndpoint: koff (s⁻¹)

1) WNb 284 (VHH) VHH: QVQLQESGGGLVQAGGPLRLSCAASGRTFSDYFMGWFRQAPGMEREFVASISWSGGTTYYADSVKGRFTISRDNAKNTVYLQMNSLKPEDTAVYYCAAAIDYGLGLTVEYEYDYWGQGTQVTVSS; 0.000363
2) WNb 292 (VHH) VHH: QVQLQESGGGLVQAGASLRLSCAASGRTFSDYAMGWFRQAPGKEREFVAAISWSGGTTYYADSVKGRFTISRDNAKNTVYLQMNSLKPEDTAVYYCAANTDYGLGLVRAYEYDYWGQGTQVTVSS; 0.00116
3) WNb 293 (VHH) VHH: QVQLQESGGGSVQAGDSLRLSCVASGRTFSSYALGWFRRAPGKEREFVAAISWSGGTTYYADSVKGRFTISRDNAKNTVYLQMNSLKPEDTAVYYCAALWDGGSWYPEGLSDFGSWGQGTQVTVSS; 0.000417
4) WNb 280 (VHH) VHH: QVQLQESGGGLVQAGGSLRLSCAASGRTFSNYFMGWFRQAPGKEREFVAAISWSGGSTYYTDSVKGRFTISRDNAKNTVYLQMNSLKPEDTAVYYCAGGLDMGWSRVNLGEYDYWGQGTQVTVSS; 0.00161
